Quick rule for you: flash point at 40 °C or higher means TRUE, lower means FALSE.

> print(dat)
                                    molecule  assigned.label
 1                                    CCCC=O           FALSE
 2             CCCCC(C)CC (stereo not given)           FALSE
 3                      C=CCCCCCC [1-OCTENE]           FALSE
 4                         CCC(C)(C)C(C)(C)C           FALSE
 5                     CCCCCCCCO [1-Octanol]            TRUE
 6  C[C@H]1CC[C@@H](C)CC1 [Cyclohexane, 1,4-dimethyl-, cis-]           FALSE
 7    Cc1cccc(C)c1C [1,2,3-Trimethylbenzene]            TRUE
 8                                 Cc1cccnc1           FALSE
 9  Cc1cc(C)c(C)cc1C [1,2,4,5-TETRAMETHYLBENZENE]            TRUE
10                               CCCCCCC(C)C           FALSE
11                                  C=CC(C)C           FALSE
12                            CCCCCCc1ccccc1            TRUE
13            CCCCOCC(C)O (stereo not given)            TRUE
14                                CCCCC(C)=O           FALSE
15                CCC(C)O (stereo not given)           FALSE
16            c1ccc(-c2ccc(-c3ccccc3)cc2)cc1            TRUE
17          O=C(O)CCCCCC(=O)O [Pimelic acid]            TRUE
18                              Cc1cccc(C)n1           FALSE
19             C=CC(C)CCC (stereo not given)           FALSE
20                           CCCCCCCc1ccccc1            TRUE
21                       C=CCCCCCCCCCCCCCCCC            TRUE
22                                   CCCCCCl           FALSE
23                             CCCCOC(=O)CCC            TRUE
24                     CCCCCCCCO [1-OCTANOL]            TRUE
25                             CC(=O)CCC(C)C           FALSE
26                              Cc1cccc(O)c1            TRUE
27                                  C=COCCCC           FALSE
28            CCCCCCC(C)O (stereo not given)            TRUE
29                       c1ccc(Oc2ccccc2)cc1            TRUE
30               CCCC(C)O (stereo not given)           FALSE
